Taken from patent US20130136748A1.

Target: human HER4 (human, UniProt Q15303 26-1308)
Sequence (Q15303 26-1308 limits assumed): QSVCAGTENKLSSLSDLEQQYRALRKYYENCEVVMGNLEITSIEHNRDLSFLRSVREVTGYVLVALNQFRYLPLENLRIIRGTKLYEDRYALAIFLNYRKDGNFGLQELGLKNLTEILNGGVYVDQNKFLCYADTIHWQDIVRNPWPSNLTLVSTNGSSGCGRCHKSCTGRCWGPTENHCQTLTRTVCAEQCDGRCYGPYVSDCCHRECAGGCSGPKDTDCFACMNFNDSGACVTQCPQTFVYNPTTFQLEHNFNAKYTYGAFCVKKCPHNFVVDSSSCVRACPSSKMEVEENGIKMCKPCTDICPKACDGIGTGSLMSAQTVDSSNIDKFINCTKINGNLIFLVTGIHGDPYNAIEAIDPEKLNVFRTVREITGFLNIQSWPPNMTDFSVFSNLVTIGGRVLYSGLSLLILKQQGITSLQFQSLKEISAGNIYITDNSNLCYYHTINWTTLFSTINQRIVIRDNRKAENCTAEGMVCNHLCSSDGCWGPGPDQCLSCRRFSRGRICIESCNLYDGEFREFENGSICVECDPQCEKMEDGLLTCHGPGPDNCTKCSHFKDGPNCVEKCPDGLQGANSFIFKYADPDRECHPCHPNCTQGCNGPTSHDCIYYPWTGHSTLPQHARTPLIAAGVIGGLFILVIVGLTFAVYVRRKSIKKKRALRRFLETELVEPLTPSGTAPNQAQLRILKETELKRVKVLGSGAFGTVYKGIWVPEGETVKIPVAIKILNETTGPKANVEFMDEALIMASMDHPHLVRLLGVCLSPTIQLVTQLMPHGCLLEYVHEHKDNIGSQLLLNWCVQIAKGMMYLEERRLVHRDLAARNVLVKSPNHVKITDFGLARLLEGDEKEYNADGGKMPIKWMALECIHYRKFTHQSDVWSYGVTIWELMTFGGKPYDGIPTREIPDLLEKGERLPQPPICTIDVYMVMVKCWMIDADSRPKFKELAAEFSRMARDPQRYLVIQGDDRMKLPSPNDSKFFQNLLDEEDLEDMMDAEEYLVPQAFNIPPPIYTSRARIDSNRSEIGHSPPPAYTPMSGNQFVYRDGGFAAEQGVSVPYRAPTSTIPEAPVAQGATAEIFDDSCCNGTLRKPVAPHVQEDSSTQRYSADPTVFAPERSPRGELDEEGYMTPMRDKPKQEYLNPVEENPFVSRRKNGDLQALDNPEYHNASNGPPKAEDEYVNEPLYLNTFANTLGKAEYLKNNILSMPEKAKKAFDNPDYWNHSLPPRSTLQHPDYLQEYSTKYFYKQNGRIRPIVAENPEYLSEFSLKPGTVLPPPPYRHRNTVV
Test: FACS CHO-HER4, 2000 nM
resultType: MCF

(a) 18B05 (VHH) VHH: EVQLVESGGGLVQAGGSLRLSCAASGLTFGSAPMGWYRQAPGKERELVAYISGDERIWYGDSVKGRFTISRDTTKNTLYLQMNSLKPEDTAVYYCVSDVKVRHWGQGTQVTVSS
(b) 21B02 (VHH) VHH: EVQLVESGGGLVQPGGSLRLSCAASGFTFDYYTIGWFRQAPGKEREGVSCISSRDGDSYYADSVKGRFTISRDNAKNTAYLQMNSLKPEDTAVYYCAASASDYGLGLELFHDEYNYWGQGTQVTVSS
Problem: Field: lower recorded MCF (choose a or b ) # answer = label of selected item
Result: a

(A) 18E08 (VHH) VHH: EVQLVESGGGLVQPGGSLRLSCAASGTLFKINAMGWYRQAPGKQRELVALITSSDTTDYAESVEGRFTISRDNTWNAVYLQMNSLKPEDTAVYYCHSDHYSMGVPEKRVIMYGQGTQVTVSS
(B) 17E08 (VHH) VHH: EVQLVESGGGLVQPGGSLRLSCSASGSIFGLNAMGWYRQTPGKERELVAGITSITRVGSTRYADSAKGRFTISGDYAKNTVYLQMNSLKPEDTGVYYCRMSIVKSGGADYWGQGTQVTVSS
Problem: Field: lower recorded MCF (choose A or B ) # answer = label of selected item
Result: A
(A: 115, B: 242)
